- System: HCT-116
- ASSAY_INFO: Cytotoxicity against human HCT116 cells after 72 hrs by MTT assay
- Format: functional, cell-based
- RECORDED_CONDITIONS: HCT-116, 72 h
QUANTITY_MEASURED: IC50

Here is how some compounds turned out for IC50.
RECORD_SMILES	IC50
COc1ccc(CNc2nc(NCc3ccc(OC)cc3)n3ncc(C(C)C)c3n2)cc1	4.6 µM
COc1ccc(CNc2nc(NCc3ccc(OC)cc3)c3ncn(C(C)C)c3n2)cc1	3.3 µM
COc1ccc(CNc2nc(NCc3ccc(OC)cc3)n3nccc3n2)cc1	6.2 µM

### Prompt Please give the measured IC50 for this compound: COc1ccc(CNc2nc(NCc3ccc(OC)cc3)n3ncc(Br)c3n2)cc1
### Response 25 µM
